System under test: plasma purified human complement protein C3 (human) (UniProt P01024)
Sequence (P01024 23-667, chain 1 of 2): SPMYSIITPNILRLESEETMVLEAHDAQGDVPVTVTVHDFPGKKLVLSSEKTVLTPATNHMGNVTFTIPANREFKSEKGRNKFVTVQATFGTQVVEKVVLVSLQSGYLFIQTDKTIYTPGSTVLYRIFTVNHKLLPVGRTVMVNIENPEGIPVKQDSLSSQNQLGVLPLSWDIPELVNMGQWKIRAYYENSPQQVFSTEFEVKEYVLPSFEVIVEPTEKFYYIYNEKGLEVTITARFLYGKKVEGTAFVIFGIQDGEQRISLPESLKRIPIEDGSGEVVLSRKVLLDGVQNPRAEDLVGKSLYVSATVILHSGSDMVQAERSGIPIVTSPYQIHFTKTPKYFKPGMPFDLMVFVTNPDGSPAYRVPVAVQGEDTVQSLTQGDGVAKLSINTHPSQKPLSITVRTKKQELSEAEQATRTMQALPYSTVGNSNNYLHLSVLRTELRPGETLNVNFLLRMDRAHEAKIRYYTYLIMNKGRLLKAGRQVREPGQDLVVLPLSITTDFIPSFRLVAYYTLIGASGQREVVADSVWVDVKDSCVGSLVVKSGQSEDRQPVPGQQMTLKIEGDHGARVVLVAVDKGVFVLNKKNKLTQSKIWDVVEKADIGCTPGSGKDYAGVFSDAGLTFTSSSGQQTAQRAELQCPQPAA
Sequence (P01024 672-1663, chain 2 of 2): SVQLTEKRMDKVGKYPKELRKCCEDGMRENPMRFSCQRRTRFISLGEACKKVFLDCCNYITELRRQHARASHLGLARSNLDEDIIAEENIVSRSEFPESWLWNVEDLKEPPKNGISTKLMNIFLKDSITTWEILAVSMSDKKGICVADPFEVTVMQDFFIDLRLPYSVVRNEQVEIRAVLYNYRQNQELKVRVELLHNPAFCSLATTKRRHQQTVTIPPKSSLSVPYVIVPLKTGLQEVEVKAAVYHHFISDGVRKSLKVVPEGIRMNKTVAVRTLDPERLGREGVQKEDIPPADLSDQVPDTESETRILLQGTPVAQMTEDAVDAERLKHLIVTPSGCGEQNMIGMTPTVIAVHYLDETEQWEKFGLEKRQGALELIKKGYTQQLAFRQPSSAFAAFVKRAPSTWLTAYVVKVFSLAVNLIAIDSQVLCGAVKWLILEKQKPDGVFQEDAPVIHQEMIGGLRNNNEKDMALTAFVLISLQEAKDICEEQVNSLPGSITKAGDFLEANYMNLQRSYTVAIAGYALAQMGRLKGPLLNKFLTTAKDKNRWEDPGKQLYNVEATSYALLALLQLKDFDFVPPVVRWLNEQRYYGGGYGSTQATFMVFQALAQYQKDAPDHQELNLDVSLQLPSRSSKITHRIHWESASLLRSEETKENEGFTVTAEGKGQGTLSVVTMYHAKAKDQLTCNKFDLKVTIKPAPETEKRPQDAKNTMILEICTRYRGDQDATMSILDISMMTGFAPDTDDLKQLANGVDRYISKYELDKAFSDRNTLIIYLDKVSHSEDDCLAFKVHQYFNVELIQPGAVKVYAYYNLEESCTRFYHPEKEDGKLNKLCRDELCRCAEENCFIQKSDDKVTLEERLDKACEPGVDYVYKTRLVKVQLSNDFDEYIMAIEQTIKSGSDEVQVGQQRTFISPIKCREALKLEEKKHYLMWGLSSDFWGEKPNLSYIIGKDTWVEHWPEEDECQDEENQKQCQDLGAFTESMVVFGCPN
Assay notes: cell-based or functional assay
Recorded EC50 hC3 cleavage determines the group label, using low = under 30 nM, moderate = from 30 nM up to 40 nM, high = 40 nM and over

Binder	Class label
MTSP-1 protease domain Q38H/I41A/D60bV/F60eR/Y60gW/D96F/F97D/ins97aE/T98G/F99M/C122S/G151N/Q175L/Q192R (enzyme) VVGGTDADEGEWPWQVSLHALGHGHACGASLISPNWLVSAAHCYIDVRGRRWSDPTQWTAFLGLHDQSQRSAPGVQERRLKRIISHPFFNFDEGMDYDIALLELEKPAEYSSMVRPISLPDASHVFPAGKAIWVTGWGHTQYGGTNALILQKGEIRVINQTTCENLLPQLITPRMMCVGFLSGGVDSCRGDSGGPLSSVEADGRIFQAGVVSWGDGCAQRNKPGVYTRLPLFRDWIKENTGV	low
MTSP-1 protease domain Q38H/I41S/D60bT/F60eS/Y60gW/D96K/F97G/ins97aV/T98P/F99L/C122S/T150S/G151H/Q175L/Q192D/Q209L (enzyme) VVGGTDADEGEWPWQVSLHALGHGHSCGASLISPNWLVSAAHCYIDTRGSRWSDPTQWTAFLGLHDQSQRSAPGVQERRLKRIISHPFFNKGVPLDYDIALLELEKPAEYSSMVRPISLPDASHVFPAGKAIWVTGWGHTQYGGSHALILQKGEIRVINQTTCENLLPQLITPRMMCVGFLSGGVDSCDGDSGGPLSSVEADGRIFLAGVVSWGDGCAQRNKPGVYTRLPLFRDWIKENTGV	low
MTSP-1 protease domain I41S/F99M/C122S/G151N/Q175L/Q192G (enzyme) VVGGTDADEGEWPWQVSLHALGQGHSCGASLISPNWLVSAAHCYIDDRGFRYSDPTQWTAFLGLHDQSQRSAPGVQERRLKRIISHPFFNDFTMDYDIALLELEKPAEYSSMVRPISLPDASHVFPAGKAIWVTGWGHTQYGGTNALILQKGEIRVINQTTCENLLPQLITPRMMCVGFLSGGVDSCGGDSGGPLSSVEADGRIFQAGVVSWGDGCAQRNKPGVYTRLPLFRDWIKENTGV	high
MTSP-1 protease domain I41G/F97S/F99L/C122S/Q175I/Q192T/D217T (enzyme) VVGGTDADEGEWPWQVSLHALGQGHGCGASLISPNWLVSAAHCYIDDRGFRYSDPTQWTAFLGLHDQSQRSAPGVQERRLKRIISHPFFNDSTLDYDIALLELEKPAEYSSMVRPISLPDASHVFPAGKAIWVTGWGHTQYGGTGALILQKGEIRVINQTTCENLLPQIITPRMMCVGFLSGGVDSCTGDSGGPLSSVEADGRIFQAGVVSWGTGCAQRNKPGVYTRLPLFRDWIKENTGV	high
MTSP-1 protease domain L33M/Q38F/I41S/D96A/ins97aW/C122S/G151N/Q192S (enzyme) VVGGTDADEGEWPWQVSMHALGFGHSCGASLISPNWLVSAAHCYIDDRGFRYSDPTQWTAFLGLHDQSQRSAPGVQERRLKRIISHPFFNAFWTFDYDIALLELEKPAEYSSMVRPISLPDASHVFPAGKAIWVTGWGHTQYGGTNALILQKGEIRVINQTTCENLLPQQITPRMMCVGFLSGGVDSCSGDSGGPLSSVEADGRIFQAGVVSWGDGCAQRNKPGVYTRLPLFRDWIKENTGV	low
MTSP-1 protease domain I41S/ins97aV/C122S/Q192G/Q209L (enzyme) VVGGTDADEGEWPWQVSLHALGQGHSCGASLISPNWLVSAAHCYIDDRGFRYSDPTQWTAFLGLHDQSQRSAPGVQERRLKRIISHPFFNDFVTFDYDIALLELEKPAEYSSMVRPISLPDASHVFPAGKAIWVTGWGHTQYGGTGALILQKGEIRVINQTTCENLLPQQITPRMMCVGFLSGGVDSCGGDSGGPLSSVEADGRIFLAGVVSWGDGCAQRNKPGVYTRLPLFRDWIKENTGV	moderate
MTSP-1 protease domain Q38H/I41S/D60bT/F60eG/D96P/F97N/T98G/F99L/C122S/G151Q/Q175L/Q192D (enzyme) VVGGTDADEGEWPWQVSLHALGHGHSCGASLISPNWLVSAAHCYIDTRGGRYSDPTQWTAFLGLHDQSQRSAPGVQERRLKRIISHPFFNPNGLDYDIALLELEKPAEYSSMVRPISLPDASHVFPAGKAIWVTGWGHTQYGGTQALILQKGEIRVINQTTCENLLPQLITPRMMCVGFLSGGVDSCDGDSGGPLSSVEADGRIFQAGVVSWGDGCAQRNKPGVYTRLPLFRDWIKENTGV	moderate
MTSP-1 protease domain F97R/ins97aT/T98V/C122S/Q175M/Q192T/D217S (enzyme) VVGGTDADEGEWPWQVSLHALGQGHICGASLISPNWLVSAAHCYIDDRGFRYSDPTQWTAFLGLHDQSQRSAPGVQERRLKRIISHPFFNDRTVFDYDIALLELEKPAEYSSMVRPISLPDASHVFPAGKAIWVTGWGHTQYGGTGALILQKGEIRVINQTTCENLLPQMITPRMMCVGFLSGGVDSCTGDSGGPLSSVEADGRIFQAGVVSWGSGCAQRNKPGVYTRLPLFRDWIKENTGV	high
MTSP-1 protease domain Q38K/I41R/Y60gG/F99L/C122S/G151N/Q192G (enzyme) VVGGTDADEGEWPWQVSLHALGKGHRCGASLISPNWLVSAAHCYIDDRGFRGSDPTQWTAFLGLHDQSQRSAPGVQERRLKRIISHPFFNDFTLDYDIALLELEKPAEYSSMVRPISLPDASHVFPAGKAIWVTGWGHTQYGGTNALILQKGEIRVINQTTCENLLPQQITPRMMCVGFLSGGVDSCGGDSGGPLSSVEADGRIFQAGVVSWGDGCAQRNKPGVYTRLPLFRDWIKENTGV	high
MTSP-1 protease domain I41E/F99L/C122S/G151N/Q175L/Q192S/D217H (enzyme) VVGGTDADEGEWPWQVSLHALGQGHECGASLISPNWLVSAAHCYIDDRGFRYSDPTQWTAFLGLHDQSQRSAPGVQERRLKRIISHPFFNDFTLDYDIALLELEKPAEYSSMVRPISLPDASHVFPAGKAIWVTGWGHTQYGGTNALILQKGEIRVINQTTCENLLPQLITPRMMCVGFLSGGVDSCSGDSGGPLSSVEADGRIFQAGVVSWGHGCAQRNKPGVYTRLPLFRDWIKENTGV	low

All values here come from patent US20240018502A1.
